- experimental_details: Portal plasma pharmacokinetics after oral administration in portal vein cannulated, freely moving rats
- Assay type: in vivo, Wistar ST rats
- conditions_used: male, Wistar ST, rat, portal vein plasma, 100 mg/kg; analyte HT in portal plasma, 0→4 h after oral administration; mean ± SEM, triplicate; read-out: AUC (converted)
property_label: AUC (µM·h)
// return numeric value only (unit: µM·h, not printed)

If you can, please state the reported AUC value of OCCc1ccc(O)c(O)c1 [Hydroxytyrosol, 2-(3,4-dihydroxyphenyl) ethyl alcohol, reference compound] .
553

---

- experimental_details: Portal plasma pharmacokinetics after oral administration in portal vein cannulated, freely moving rats
- Type: in vivo, Wistar ST rats
- conditions_used: male, Wistar ST, rat, 300 mg/kg; analyte Ole in portal plasma after oral administration
property_label: Tmax (min)
Provide the reading as a plain figure in min.

Form field: reported Tmax of C/C=C1/[C@H](O[C@@H]2O[C@H](CO)[C@@H](O)[C@H](O)[C@H]2O)OC=C(C(=O)OC)[C@H]1CC(=O)OCCc1ccc(O)c(O)c1 [Oleuropein, reference compound]
5
